# Procedure summary: Plasma pharmacokinetics of 10 WDD components after gavage of WDD (LC-MS/MS, Phoenix NCA and compartment model)
# Type: in vivo, SD rats
# Condition label: Sprague-Dawley, po; HTG: WDD 6.6 g/100 g by gavage, hyperlipidemia rat plasma, non-compartment, n = 6
Measurement name: AUC(0-t) (ng·h/mL)

Please review the entries below; each comes with its answer.
compound="O=C(/C=C/c1ccc(O)cc1)c1ccc(O)cc1O [Isoliquiritigenin]" observed_result=54.9
compound="O=C1C[C@@H](c2ccc(O)cc2)Oc2cc(O)cc(O)c21 [Naringenin]" observed_result=595
compound="O=c1c(O)c(-c2ccc(O)c(O)c2)oc2cc(O)cc(O)c12 [Quercetin]" observed_result=370

P. COc1ccc([C@@H]2CC(=O)c3c(O)cc(O)cc3O2)cc1O [Hesperetin]
Q. C[C@@H]1O[C@@H](O[C@H]2[C@H](Oc3cc(O)c4c(c3)O[C@H](c3ccc(O)cc3)CC4=O)O[C@H](CO)[C@@H](O)[C@@H]2O)[C@H](O)[C@H](O)[C@H]1O [Naringin]
R. CC1(C)[C@@H](O)CC[C@]2(C)[C@H]3C(=O)C=C4[C@@H]5C[C@@](C)(C(=O)O)CC[C@]5(C)CC[C@@]4(C)[C@]3(C)CC[C@@H]12 [Glycyrrhetinic acid]
S. COc1ccc(-c2cc(=O)c3c(OC)c(OC)c(OC)c(OC)c3o2)cc1 [Tangeretin]
Ranking field: AUC(0-t); order: falling. I'd appreciate it if you listed the labels in the requested order.
R, P, Q, S
